Tested on: U-266
Experiment: cells
Type: functional, cell-based
Details: Homo sapiens
Description: SANGER: Inhibition of human U-266 cell growth in a cell viability assay.
pIC50: −log10 of the molar value.

{"Line Notation": "Cc1nc(Nc2ncc(C(=O)Nc3c(C)cccc3Cl)s2)cc(N2CCN(CCO)CC2)n1", "pIC50": "< 5.89"}
{"Line Notation": "CCNC(=O)c1noc(-c2cc(C(C)C)c(O)cc2O)c1-c1ccc(CN2CCOCC2)cc1", "pIC50": 6.84}
{"Line Notation": "N#C/C(=C1/Nc2ccccc2S1)c1ccnc(NCCc2cccnc2)n1", "pIC50": "< 5.10"}
{"Line Notation": "COc1cc(Nc2c(C#N)cnc3cc(OCCCN4CCN(C)CC4)c(OC)cc23)c(Cl)cc1Cl", "pIC50": "< 5.70"}

###

Test system: REH;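 also: growth inhibition of REH cells determined with a cell viability read-out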
Assay: cells
Format: functional, cell-based
Settings: Homo sapiens
Description: SANGER: Inhibition of human REH cell growth in a cell viability assay.
pIC50: −log10 of the molar value.

{"Compound": "CCNC(=O)c1noc(-c2cc(C(C)C)c(O)cc2O)c1-c1ccc(CN2CCOCC2)cc1 [LUMINESPIB]", "Test Target": "REH", "Result Qualifier": "=", "pIC50": 7.69}
{"Compound": "CCn1c(-c2nonc2N)nc2cnc(Oc3cccc(NC(=O)c4ccc(OCCN5CCOCC5)cc4)c3)cc21 [GSK-269962A]", "Test Target": "REH", "Result Qualifier": "<", "pIC50": 5.60}

###

Test system: RPMI-8226
Assay: cells
Format: functional, cell-based
Conditions: Homo sapiens
Description: SANGER: Inhibition of human RPMI-8226 cell growth in a cell viability assay.
Entries and their IC50 values follow.
Recorded Metric: IC50 (nM)

{"Compound": "CC[C@]1(O)C[C@@H]2CN(CCc3c([nH]c4ccccc34)[C@@](C(=O)OC)(c3cc4c(cc3OC)N(C)[C@H]3[C@@](O)(C(=O)OC)[C@H](OC(C)=O)[C@]5(CC)C=CCN6CC[C@]43[C@@H]65)C2)C1", "Test Target": "RPMI-8226", "Recorded Metric": "IC50", "Endpoint Unit": "nM", "Result Qualifier": "=", "Value Measured": 2.85}
{"Compound": "CC(C)=CC[C@@H](O)C1=CC(=O)c2c(O)ccc(O)c2C1=O", "Test Target": "RPMI-8226", "Recorded Metric": "IC50", "Endpoint Unit": "nM", "Result Qualifier": "=", "Value Measured": 472}
{"Compound": "CCn1c(-c2nonc2N)nc2cnc(Oc3cccc(NC(=O)c4ccc(OCCN5CCOCC5)cc4)c3)cc21 [GSK-269962A]", "Test Target": "RPMI-8226", "Recorded Metric": "IC50", "Endpoint Unit": "nM", "Result Qualifier": ">", "Value Measured": 2500}
{"Compound": "CC(O)(CS(=O)(=O)c1ccc(F)cc1)C(=O)Nc1ccc(C#N)c(C(F)(F)F)c1 (configuration not stated) [BICALUTAMIDE]", "Test Target": "RPMI-8226", "Recorded Metric": "IC50", "Endpoint Unit": "nM", "Result Qualifier": ">", "Value Measured": 1020}
{"Compound": "CO[C@@]12[C@H](COC(N)=O)C3=C(C(=O)C(C)=C(N)C3=O)N1C[C@@H]1N[C@@H]12", "Test Target": "RPMI-8226", "Recorded Metric": "IC50", "Endpoint Unit": "nM", "Result Qualifier": "=", "Value Measured": 1240}
{"Compound": "Cn1c(=O)n(-c2ccc(C(C)(C)C#N)cc2)c2c3cc(-c4cnc5ccccc5c4)ccc3ncc21", "Test Target": "RPMI-8226", "Recorded Metric": "IC50", "Endpoint Unit": "nM", "Result Qualifier": "=", "Value Measured": 33.8}
{"Compound": "CCNc1cc(N[C@H]2CC[C@@H](O)CC2)nc(Nc2ccc3c(ccn3Cc3ccccc3)c2)n1", "Test Target": "RPMI-8226", "Recorded Metric": "IC50", "Endpoint Unit": "nM", "Result Qualifier": ">", "Value Measured": 5120}

###

Tested on: LK-2;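 also: growth inhibition of LK-2 cells, read out with a viability assay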
Assay: cells
Assay type: functional, cell-based
Conditions: Homo sapiens
Description: SANGER: Inhibition of human LK-2 cell growth in a cell viability assay.
pIC50: −log10 of the molar value.
Entries and their pIC50 values follow.

{"Line Notation": "NC(=O)c1ncn([C@@H]2O[C@H](COP(=O)(O)O)[C@@H](O)[C@H]2O)c1N", "Test Target": "LK-2", "Result Qualifier": "<", "pIC50": 2.70}
{"Line Notation": "CC[C@@]1(O)C(=O)OCc2c1cc1n(c2=O)Cc2cc3ccccc3nc2-1", "Test Target": "LK-2", "Result Qualifier": "=", "pIC50": 7.45}
{"Line Notation": "C[C@]12O[C@H](C[C@]1(O)CO)n1c3ccccc3c3c4c(c5c6ccccc6n2c5c31)CNC4=O", "Test Target": "LK-2", "Result Qualifier": "=", "pIC50": 6.37}
{"Line Notation": "N#C/C(=C1/Nc2ccccc2S1)c1ccnc(NCCc2cccnc2)n1", "Test Target": "LK-2", "Result Qualifier": "=", "pIC50": 5.18}

###

Tested on: CRO-AP2
Test: SANGER: Inhibition of human CRO-AP2 cell growth in a cell viability assay.
Type: functional, cell-based
Entries and their IC50 values follow.

{"Compound": "CCn1c(-c2nonc2N)nc2cnc(Oc3cccc(NC(=O)c4ccc(OCCN5CCOCC5)cc4)c3)cc21 [GSK-269962A]", "Endpoint Unit": "nM", "Result Qualifier": "=", "IC50": 2360}
{"Compound": "Cc1ccc(NC(=O)c2cccc(C(C)(C)C#N)c2)cc1Nc1ccc2ncn(C)c(=O)c2c1", "Endpoint Unit": "nM", "Result Qualifier": ">", "IC50": 4000}

###

Tested on: SW982;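 also: growth inhibition of SW982 cells, read out with a cell viability assay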
Experiment: cells
Type: functional, cell-based
Details: Homo sapiens
Description: SANGER: Inhibition of human SW982 cell growth in a cell viability assay.

{"Molecule": "Cc1[nH]c(/C=C2\\C(=O)Nc3ccc(S(=O)(=O)Cc4c(Cl)cccc4Cl)cc32)c(C)c1C(=O)N1CCC[C@@H]1CN1CCCC1 [PHA-665752]", "Result Qualifier": ">", "IC50, nM": 2000}
{"Molecule": "O=c1[nH]c2ccccc2n1C1CCN(Cc2ccc(-c3nc4cc5[nH]cnc5cc4nc3-c3ccccc3)cc2)CC1", "Result Qualifier": ">", "IC50, nM": 2560}
{"Molecule": "N#C/C(=C1/Nc2ccccc2S1)c1ccnc(NCCc2cccnc2)n1", "Result Qualifier": "=", "IC50, nM": 1780}
{"Molecule": "C[C@]12O[C@H](C[C@]1(O)CO)n1c3ccccc3c3c4c(c5c6ccccc6n2c5c31)CNC4=O [LESTAURTINIB]", "Result Qualifier": "=", "IC50, nM": 42.5}
{"Molecule": "Cn1c(=O)n(-c2ccc(C(C)(C)C#N)cc2)c2c3cc(-c4cnc5ccccc5c4)ccc3ncc21 [DACTOLISIB]", "Result Qualifier": "=", "IC50, nM": 49.9}
{"Molecule": "Cc1n[nH]c2ccc(-c3cncc(OC[C@@H](N)Cc4c[nH]c5ccccc45)c3)cc12 [A-443654]", "Result Qualifier": "=", "IC50, nM": 166}
{"Molecule": "CC(=O)c1c(C)c2cnc(Nc3ccc(N4CCNCC4)cn3)nc2n(C2CCCC2)c1=O [PALBOCICLIB]", "Result Qualifier": ">", "IC50, nM": 4000}
{"Molecule": "Cn1cc(/C=C2\\C(=O)Nc3cccnc32)c2ccccc21", "Result Qualifier": ">", "IC50, nM": 2000}

###

Tested on: C-33-A;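 also: cell viability assay measuring growth inhibition of C-33-A cells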
Assay: cells
Format: functional, cell-based
Conditions: Homo sapiens
Description: SANGER: Inhibition of human C-33-A cell growth in a cell viability assay.
pIC50: −log10 of the molar value.
Entries and their pIC50 values follow.

{"Compound": "C/C(O)=C(\\C#N)C(=O)Nc1cc(Br)ccc1Br", "pIC50": "< 4.80"}
{"Compound": "Cn1cc(/C=C2\\C(=O)Nc3cccnc32)c2ccccc21", "pIC50": "< 5.70"}
{"Compound": "CC(=O)c1c(C)c2cnc(Nc3ccc(N4CCNCC4)cn3)nc2n(C2CCCC2)c1=O", "pIC50": "< 5.40"}
{"Compound": "CC(O)(CS(=O)(=O)c1ccc(F)cc1)C(=O)Nc1ccc(C#N)c(C(F)(F)F)c1 (centres undefined) [BICALUTAMIDE]", "pIC50": "< 5.99"}

###

Tested on: ES5;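 also: growth inhibition of human ES5 cells, read out by a cell viability assay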
Experiment: cells
Assay type: functional, cell-based
Settings: Homo sapiens
Description: SANGER: Inhibition of human ES5 cell growth in a cell viability assay.

{"Line Notation": "CC(=O)c1c(C)c2cnc(Nc3ccc(N4CCNCC4)cn3)nc2n(C2CCCC2)c1=O", "Result Qualifier": "=", "IC50, nM": 753}
{"Line Notation": "Cc1nc(Nc2ncc(C(=O)Nc3c(C)cccc3Cl)s2)cc(N2CCN(CCO)CC2)n1", "Result Qualifier": ">", "IC50, nM": 1280}
{"Line Notation": "CC[C@]1(O)C[C@@H]2CN(CCc3c([nH]c4ccccc34)[C@@](C(=O)OC)(c3cc4c(cc3OC)N(C)[C@H]3[C@@](O)(C(=O)OC)[C@H](OC(C)=O)[C@]5(CC)C=CCN6CC[C@]43[C@@H]65)C2)C1", "Result Qualifier": "=", "IC50, nM": 3.88}
{"Line Notation": "O=c1[nH]c2ccccc2n1C1CCN(Cc2ccc(-c3nc4cc5[nH]cnc5cc4nc3-c3ccccc3)cc2)CC1", "Result Qualifier": ">", "IC50, nM": 2560}
